B1: GNAI1 (parent)
chain: WIHCFEGVTAIIFCVALSDYDLVL

- Variants of: B1
- test.summary: protein stability index of a GFP-peptide fusion (GPS, HEK-293T) (PSI 1-6); higher = more stable;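 also: lentivirally expressed fusions sorted by FACS into six bins by GFP to DsRed ratio, PSI derived from sequencing read proportions per bin multiplied by bin number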
- experimental.parameters: c terminus: a fixed tail appended

[
  {
    "sequence.code": "WIHWFEGVTAIIFCVALSDYDLVL [C4W]",
    "protein stability index": 4.22
  },
  {
    "sequence.code": "WIHCFEGVTAIIFCVDLSDYDLVL [A16D]",
    "protein stability index": 2.96
  },
  {
    "sequence.code": "WIHCFEGATAIIFCVALSDYDLVL [V8A]",
    "protein stability index": 2.56
  },
  {
    "sequence.code": "WIHCFEGVTAIIFCVALSDYLLVL [D21L]",
    "protein stability index": 2.81
  },
  {
    "sequence.code": "WIHCFEGVTAIIFCVALSDYDLVD [L24D]",
    "protein stability index": 2.92
  },
  {
    "sequence.code": "WIHCFEGSTAIIFCVALSDYDLVL [V8S]",
    "protein stability index": 1.65
  },
  {
    "sequence.code": "WIHCFEGVTAQIFCVALSDYDLVL [I11Q]",
    "protein stability index": 1.86
  },
  {
    "sequence.code": "WQHCFEGVTAIIFCVALSDYDLVL [I2Q]",
    "protein stability index": 3.22
  },
  {
    "sequence.code": "WIHCFEGVTAIIFCVALSYYDLVL [D19Y]",
    "protein stability index": 3.06
  },
  {
    "sequence.code": "WIHCFEGVTAIIFCVALSFYDLVL [D19F]",
    "protein stability index": 3.69
  },
  {
    "sequence.code": "WIHCFEGVTAIIFCPALSDYDLVL [V15P]",
    "protein stability index": 3.22
  },
  {
    "sequence.code": "GIHCFEGVTAIIFCVALSDYDLVL [W1G]",
    "protein stability index": 2.14
  },
  {
    "sequence.code": "WIHCFEGVTAIIFTVALSDYDLVL [C14T]",
    "protein stability index": 4.02
  },
  {
    "sequence.code": "WIHCFEGVTAIIFCVALSDYSLVL [D21S]",
    "protein stability index": 2.76
  },
  {
    "sequence.code": "WIHCFEPVTAIIFCVALSDYDLVL [G7P]",
    "protein stability index": 5.18
  },
  {
    "sequence.code": "WIHCFEGVTAIIFCVALSDKDLVL [Y20K]",
    "protein stability index": 2.02
  },
  {
    "sequence.code": "WIHCFEGVTAIIFCFALSDYDLVL [V15F]",
    "protein stability index": 3.93
  },
  {
    "sequence.code": "WIHCFEGVTAITFCVALSDYDLVL [I12T]",
    "protein stability index": 1.79
  },
  {
    "sequence.code": "AIHCFEGVTAIIFCVALSDYDLVL [W1A]",
    "protein stability index": 3.11
  },
  {
    "sequence.code": "WIHCFEGVTFIIFCVALSDYDLVL [A10F]",
    "protein stability index": 2.31
  },
  {
    "sequence.code": "WIHCFEGVTAIIFCVGLSDYDLVL [A16G]",
    "protein stability index": 3.14
  },
  {
    "sequence.code": "WIHCFEGVTAIIFCVALSDYDLRL [V23R]",
    "protein stability index": 2.89
  }
]

Origin of measurements: the supplement of paper PMC10567573
